Read-out: Urokinase-type plasminogen activator receptor (uPAR), PLAUR (gene 5329)
Assay: BSK_4H_uPAR: BioMAP Diversity Plus: 4H Assay for Urokinase-type plasminogen activator receptor (uPAR) Biomarker Activity (AID 2283030)
Conditions: primary human endothelial cells (HUVEC); actives raise or lower the signal
Procedure: BSK_4H is a cell-based, multiplexed-readout assay that uses umbilical vein endothelium, a human vascular primary cell, with measurements taken at 24 hours after chemical dosing in a 96-well plate.BSK_4HAR is an assay component measured in the BSK_4H assay. It measures uPAR antibody related to regulation of gene expression using ELISA technology.Data from the assay component BSK_4HAR was analyzed into 1 assay endpoint. […]
The source made the active and inactive calls. Rule for the calls: active = hit-call score of the fitted dose curve at least 0.9, where 1 is the maximum; inactive = score below 0.9.
Choose the fitting class; nothing outside yes for active, no for inactive is accepted.

### Prompt Lab log entry: CC(C)(C)OOC(C)(C)CCC(C)(C)OOC(C)(C)C — outcome as called in the assay?
### Response no

### Prompt How about CCOC(=O)[C@]1(c2ccccc2)Oc2ccccc2[C@@H]1N ?
### Response yes

### Prompt How about c1ccc(C2CO2)cc1 (stereo not drawn) ?
### Response no

### Prompt How about O=C(Oc1ccc(Br)cc1)N1CCN2CCC1CC2 ?
### Response no

### Prompt How about O=P(OCCCl)(OCCCl)OCCCl ?
### Response no

### Prompt How about OCCOCCO ?
### Response no

### Prompt How about CCN(CC)CCO ?
### Response no

### Prompt How about OCCCBr ?
### Response no
